Record form. Attribute: inhibition. Fill in for each entry.
# Test system: Butyrylcholinesterase (Rattus norvegicus)
# protocol-notes: Inhibition of rat serum BuChE at 10 uM by Ellman's method relative to control
One number for each entry, in %.

These solved cases illustrate the format of a correct answer.
>>> df
                                     smiles  measured_attribute  value_observed
0  O=c1ccc(-c2ccccc2O)nn1CCCCCCN1CCc2ccccc2C1          inhibition            21.7
1  CCN(CCCCCCn1nc(-c2cc(OC)ccc2O)ccc1=O)Cc1ccccc1N(C)C          inhibition            13.4
2  CN(CCCCCCn1nc(-c2ccccc2O)ccc1=O)Cc1ccccc1          inhibition            28.6
3  CCN(CCCCCCn1nc(-c2cc(OC)ccc2O)ccc1=O)Cc1cccc(F)c1          inhibition            17.4
4       CCN(CC)CCCCCCn1nc(-c2ccccc2O)ccc1=O          inhibition            13.4
5  CCN(CCCCCCn1nc(-c2cc(C)ccc2O)ccc1=O)Cc1ccccc1OC          inhibition            38.9
6  CCN(CCCCCCn1nc(-c2ccccc2O)ccc1=O)Cc1ccc(F)cc1          inhibition             9.3
7  CCN(CCCCCCn1nc(-c2cc([N+](=O)[O-])ccc2O)ccc1=O)Cc1ccccc1OC          inhibition            31.8

Hey, quick one: what's inhibition for each of these?
1. CCN(CCCCCCn1nc(-c2cc(F)ccc2O)ccc1=O)Cc1ccccc1OC
2. CCN(CCCCCCn1nc(-c2cc(Cl)ccc2O)ccc1=O)Cc1ccccc1OC
3. CCN(CCCCCCn1nc(-c2ccc(F)cc2O)ccc1=O)Cc1ccccc1N(C)C
4. CCN(CCCCCCn1nc(-c2ccccc2O)ccc1=O)Cc1ccccc1OC
5. CCN(CCCCCCn1nc(-c2cc(Cl)ccc2O)ccc1=O)Cc1cccc(F)c1
6. CCN(CCCCCCOc1ccc(-c2cc(N(C)C)ccc2O)nn1)Cc1ccccc1N(C)C
7. CCN(CCCCCCn1nc(-c2ccc(N(C)C)cc2O)ccc1=O)Cc1ccccc1N(C)C

Reply:
1. 31.8
2. 24.3
3. 27.3
4. 24.5
5. 15.8
6. 16.6
7. 17.6

Value sought for every listed molecule: inhibition.
1. CCN(CCCCCCOc1ccc(-c2cc(N(C)C)ccc2O)nn1)Cc1cccc(F)c1
2. CCN(CCCCCCOc1ccc(-c2ccccc2O)nn1)Cc1cccc(F)c1
3. CCN(CCCCCCn1nc(-c2cc([N+](=O)[O-])ccc2O)ccc1=O)Cc1ccccc1N(C)C
4. O=c1ccc(-c2ccccc2O)nn1CCCCCCN1CCCCC1
5. CCN(CCCCCCn1nc(-c2cc(N(C)C)ccc2O)ccc1=O)Cc1ccccc1OC
6. CCN(CCCCCCn1nc(-c2cc(NC(C)=O)ccc2O)ccc1=O)Cc1ccccc1N(C)C
7. CCN(CCCCCCn1nc(-c2cc(Br)ccc2O)ccc1=O)Cc1cccc(F)c1
8. CCN(CCCCCCn1nc(-c2ccccc2O)ccc1=O)Cc1ccccc1F

Reply:
[19.3, 18.5, 28.3, 25.6, 16.7, 14.4, 12.9, 15.7]

Need inhibition for each of these molecules.
1. CCN(CCCCCCCCn1nc(-c2cc(NC(C)=O)ccc2O)ccc1=O)Cc1ccccc1N(C)C
2. CCN(CCCCCCn1nc(-c2ccccc2O)ccc1=O)Cc1ccccc1

Reply:
36.4
25.7
